The reported numbers originate from paper PMC4601051.

EXPERIMENTAL_PROTOCOL: In vivo mouse pharmacokinetics
MEASUREMENT_PARAMETERS: female, mouse, in vivo; IP, 10 mg/kg, NMRI mice; read-out: AUC0–8
OUTCOME_MEASURE: AUC(0-t) at 8 h (µM·h)
Answers are plain numbers, in µM·h.

Measured AUC(0-t) at 8 h of CNC(=O)C1Cc2cc(F)ccc2N1C(=O)COc1ccc(F)cc1 (stereo not drawn) : 34

Provide each entry's AUC(0-t) at 8 h from the list below.
1. CNC(=O)C1Cc2ccccc2N1C(=O)COc1ccc(F)cc1 (stereo not drawn)
2. CNC(=O)[C@H]1Cc2ccccc2N1C(=O)Cc1ccc(F)cc1

// result
1: 5.6; 2: 9.1
